Test system: Leishmania tarentolae promastigotes (LtP)
Assay: Resazurin viability assay in Leishmania tarentolae promastigotes
Format: cell-based
Conditions: Leishmania tarentolae, 48 h, resazurin assay, endpoint at 48 h, 2 × 10^6 LtP/mL; read-out: IC50 (µM) Mean ± SD LtP
Each entry below lists one item and its recorded IC50 value.
Give just the number in µM; leave the unit off.

Reference set (4 entries):
- Compound: "O=C1c2ccccc2C(=O)c2ccccc21 [AQ, anthraquinone, reference compound]"
  U: "µM"
  IC50: 103
- Compound: "c1ccc2c(c1)C1OOC2c2ccccc21 [AcEP1117, 9,10-dihydro-9,10-epidioxidoanthracene]"
  U: "µM"
  IC50: 5.72
- Compound: "CC12OOC(c3ccccc31)c1ccccc12 [AcEP1129]"
  U: "µM"
  IC50: 0.61
- Compound: "CCc1ccc2c(c1)C1OOC2c2ccccc21 (stereo not drawn) [AcEP1130]"
  U: "µM"
  IC50: 0.22

# evaluate next
Task: Missing value: IC50, Leishmania tarentolae promastigotes (LtP), entry CC12OOC(C)(c3ccccc31)c1ccccc12 [AcEP1118] . Fill in?
Output: 1
